FYI, the data here is from a collection of fitness landscapes (doi:10.1126/science.1257360).

B1: PhoQ; a variant is named by its letters at X, in order, P23837 (parent)
chain: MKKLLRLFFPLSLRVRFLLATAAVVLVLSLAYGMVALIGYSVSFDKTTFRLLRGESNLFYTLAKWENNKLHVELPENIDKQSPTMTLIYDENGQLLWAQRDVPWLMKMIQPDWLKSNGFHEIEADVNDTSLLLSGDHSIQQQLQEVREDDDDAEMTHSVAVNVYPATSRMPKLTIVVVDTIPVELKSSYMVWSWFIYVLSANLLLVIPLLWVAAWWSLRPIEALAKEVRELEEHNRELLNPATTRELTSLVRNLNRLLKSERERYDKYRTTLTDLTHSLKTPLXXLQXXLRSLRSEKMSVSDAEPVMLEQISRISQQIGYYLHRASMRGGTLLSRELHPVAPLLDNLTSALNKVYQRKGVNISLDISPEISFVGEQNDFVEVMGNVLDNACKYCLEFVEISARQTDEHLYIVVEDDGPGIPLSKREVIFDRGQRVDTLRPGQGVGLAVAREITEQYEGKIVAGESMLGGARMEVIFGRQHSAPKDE

Variants of: B1
ASSAY_PROTOCOL: enrichment ratio after two sorts for PhoP signalling (ratio (wild type AVST 3.29)); higher = more functional
CONDITIONS: with PhoP (E. coli)
Over roughly 140,000 sequences, “enrichment ratio after two sorts for PhoP signalling” has its median near 0; the highest 2% begin near 11. This is one part of a sample in which the highest values are shown more often than they occur.
Hi there, I'd appreciate the recorded enrichment ratio for every entry that follows.

* GNAI | 7.21
* NYQY | ≤ 0.25
* WHCG | ≤ 0.25
* IMAN | ≤ 0.25
* SPLS | ≤ 0.25

# return enrichment ratio for each item in the list
1. FDEE
2. NQCF
3. IFYT

["≤ 0.25", "≤ 0.25", "≤ 0.25"]

Need enrichment ratio for each of these variants.
1. YTST
2. MAAS
3. HVKY

["≤ 0.25", 1.31, "≤ 0.25"]
